Reference source for all entries: ChEMBL document CHEMBL2010788

For each of the molecules below, state its pKi.
Target: Neuronal acetylcholine receptor subunit alpha-7 (Rattus norvegicus)
Sequence (Q05941 whole entry): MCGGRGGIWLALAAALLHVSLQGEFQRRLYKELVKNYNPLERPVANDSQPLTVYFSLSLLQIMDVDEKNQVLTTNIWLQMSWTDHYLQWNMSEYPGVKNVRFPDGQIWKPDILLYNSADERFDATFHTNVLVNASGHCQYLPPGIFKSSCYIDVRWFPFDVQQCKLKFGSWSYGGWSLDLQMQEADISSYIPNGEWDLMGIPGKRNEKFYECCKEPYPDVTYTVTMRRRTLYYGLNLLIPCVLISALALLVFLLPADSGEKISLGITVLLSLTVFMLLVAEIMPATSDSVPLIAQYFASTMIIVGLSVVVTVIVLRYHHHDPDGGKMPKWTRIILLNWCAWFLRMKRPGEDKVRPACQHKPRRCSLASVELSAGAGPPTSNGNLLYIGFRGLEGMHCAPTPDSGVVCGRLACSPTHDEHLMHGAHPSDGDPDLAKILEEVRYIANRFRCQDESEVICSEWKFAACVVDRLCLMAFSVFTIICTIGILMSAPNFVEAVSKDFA
Assay: Displacement of [3H]epibatidine from rat alpha7 nAChR expressed in […] cells after 4 hrs by liquid scintillation counting
pKi: −log10 of the molar value.

Example molecules with recorded pKi:
[[record]]
line_notation = "O=C(CCCCCN1CCOCC1)Nc1ccc(-c2cccnc2)cc1"
result_type = "pKi"
experimental_value = "< 5.00"

[[record]]
line_notation = "O=C(CCN1CCOCC1)Nc1ccc(-c2cccnc2)cc1"
result_type = "pKi"
experimental_value = "< 5.00"


With those in mind, consider the next molecule.
Supply measured pKi of "O=C(CCCN1CCOCC1)Nc1ccc(-c2cccnc2)cc1" in your reply.
< 5.00
